Listing of recorded melting point by entry.
assay-endpoint: melting point

CCCOc1ccccc1-c1nc2[nH]c(=O)c(=O)[nH]c2c(=O)[nH]1 = 312 to 315 °C
CS(=O)C(C)(O)c1ccc(-c2ccccc2)cc1 (centres undefined) = 160 to 162 °C
Cc1[nH]c(=O)c(-c2csc(-c3ccnc(NCCNC(C)C)c3)n2)cc1C(=O)NCCNC(C)C = > 260 °C
c1ccc(-n2c(C3=NCCN3)cc3ccccc32)cc1 = 180 to 182 °C
CCCCCCCCNC(=O)N1CCC(c2cc(Cc3ccc(OC)cc3)nc(N)n2)CC1 = 104 to 106 °C
O=C(Cc1ccccc1Nc1c(Cl)cccc1Cl)NO = 164 to 165 °C
CCCOc1ccc2c(c1)C(N(C)S(C)(=O)=O)=CC(C)(C)O2 = 93 to 95 °C
CC(C)(C)c1cc(CO)n(Cc2ccc(C(F)(F)F)cc2Cl)n1 = 115 to 117 °C
O=c1[nH]c(C(F)(F)F)nc2ccccc12 = 220 °C
CC(=O)Oc1cc(N(C)C2CCCCC2)c2ccccc2c1OC(C)=O = 103 to 105 °C
COC(=O)c1csc(-c2ccc(F)cc2)n1 = 103 to 105 °C
CN1C(=O)N(C)C(Cc2c[nH]c3ccccc23)C1CCc1cc(C(F)(F)F)cc(C(F)(F)F)c1 (centres undefined) = 202 to 205 °C
CSc1ccc(C(=O)CBr)c(F)c1 = 55 to 59 °C
O=S(=O)(C1CC1)N1CCC(Nc2nccc(-c3c(-c4ccc(F)c(O)c4)nc4sccn34)n2)CC1 = 224 to 225 °C
